Target: Aspergillus fumigatus proliferating cell nuclear antigen (Aspergillus fumigatus)
Experiment: SPR
Ends that are not written are not given here.
Give log10(Kd) for every item shown.
The figures below represent log10 of Kd, where Kd is stated in µM.

Exercise: Quick one: log10(Kd) of KRRQKSMTDFYHSKR-NH2 [p21µ-T145K peptide] ?
Solution: 1.00

Exercise: Recorded log10(Kd) of KRRQDSMTDFYHSKR-NH2 [p21µ-T145D peptide] , please.
Solution: 0.61

Exercise: Please look up its log10(Kd): KRRQTSMTDFFHSKR-NH2 [p21µ-Y151F peptide]
Solution: -0.78

Exercise: Given KRRQTSLTDFYHSKR-NH2 [p21µ-M147L peptide] , state its recorded log10(Kd).
Solution: -0.42

Exercise: // returns reported log10(Kd) for input KRRQTSITDFYHSKR-NH2 [p21µ-M147I peptide]
Solution: -1.43

Exercise: Can you look up the measured log10(Kd) of KRRQTSMTEFYHSKR-NH2 [p21µ-D149E peptide] for me?
Solution: -0.40

Exercise: Any idea what log10(Kd) was measured for KRRMTSMTDFYHSKR-NH2 [p21µ-Q144M peptide] ?
Solution: 1.62

Exercise: I am curious: what log10(Kd) value has been reported for KRRQTRITEYFHSKR-NH2 [p21µ-RD2 peptide] ?
Solution: -1.69
